Test: differential killing of epithelial or mesenchymal cells, primary screen, imaging, PC-3E GFP, TEM4-18 mCherry, co-culture (AID 1345086);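 note: cells exposed to compound for 72 h before imaging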
Conditions: imaging cell counts, measured here: mesenchymal TEM4-18 mCherry cell survival, at 1 µM
Parameter Measured: normalised cell number
# respond with the number and nothing more

Examples with their reported normalised cell number follow.
Compound: O=C(Nc1ccccc1)c1ccccc1O
normalised cell number: 1.39
//
Compound: CC(C)C1=CC2=CCC3[C@](C)(CCC[C@]3(C)C(=O)O)C2CC1 (some centres undefined)
normalised cell number: 1.03
//
Compound: CC(C)(N=NC(C)(C)C(=N)N)C(=N)N
normalised cell number: 1.22

Entry CC1CC2OC2/C=C/C(O)CC(=O)O1 (centres undefined) — recorded normalised cell number = 1.02

Entry CC(C)CC1OC23SCC(c4ccccc4)N2C(=O)C1C(C)S3 (centres undefined) — recorded normalised cell number = 0.96

Entry COc1ccc(-c2cc(=O)c3c(O)c(OC)c(O[C@H]4O[C@H](CO[C@@H]5O[C@@H](C)[C@H](O)[C@@H](O)[C@H]5O)[C@@H](O)[C@H](O)[C@H]4O)cc3o2)cc1 — recorded normalised cell number = 1.03

Entry NCC1O[C@@H](OC2C(N)C[C@@H](N)C(OC3OC(CO)[C@@H](O)C(N)[C@H]3O)[C@H]2O)C(O)[C@@H](O)C1O (some centres undefined) — recorded normalised cell number = 1.13

Entry NCC1O[C@@H](OC2C(N)C[C@@H](N)C(O)[C@H]2OC2OC(CO)C(OC3OC(CN)[C@@H](O)C(O)[C@H]3N)C2O)C(N)[C@@H](O)C1O (some centres undefined) — recorded normalised cell number = 0.99

Entry CC1(C)S[C@@H]2[C@H](NC(=O)[C@H](C(=O)O)c3cccs3)C(=O)N2[C@H]1C(=O)O — recorded normalised cell number = 1.01

====

Experiment: HDN33 neuroblastoma growth inhibition, cell-based, chromothripsis tumors, cisplatin or BGB combos (AID 1671450);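 note: cells exposed to compound for four days; 0% = vehicle DMSO and 100% = cell killing by high DMSO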
Conditions: HDN33 neuroblastoma cells, measured here: with cisplatin IC20 combination, at 0.5 µM, stronger effect = higher value
Parameter Measured: inhibition (%)
All answers are understood in %, so give the number only.

Examples with their reported inhibition follow.
Molecule: CCc1c2c(nc3ccc(O)cc13)-c1cc3c(c(=O)n1C2)COC(=O)[C@]3(O)CC
Parameter Measured: inhibition
Endpoint Result: 82.2
//
Molecule: O=c1cc(-c2cccc3c2Sc2ccccc2S3)oc(N2CCOCC2)c1
Parameter Measured: inhibition
Endpoint Result: -8.71
//
Molecule: CC(C)N=c1cc2n(-c3ccc(Cl)cc3)c3ccccc3nc-2cc1Nc1ccc(Cl)cc1
Parameter Measured: inhibition
Endpoint Result: -29
//
Molecule: O=C(Nc1ccncc1)c1cc([N+](=O)[O-])ccc1Cl
Parameter Measured: inhibition
Endpoint Result: 24.4

Please look at the following molecule next.
Entry NC(=O)c1ncn(C2OC(CO)C(O)C2O)n1 (stereo not given) — recorded inhibition = 2.48

====

Assay: liver-stage malaria parasite growth inhibition, primary screen, cell-based, HepG2, luciferase luminescence, HepG2 viability (AID 624349);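 note: 100% = mean of DMSO negative control wells on the same plate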
Settings: P. berghei liver stage in HepG2, luciferase luminescence, concentration not given here; stronger effect = lower value
Parameter Measured: parasite load remaining (%)
All answers are understood in %, so give the number only.

Examples with their reported parasite load remaining follow.
Compound: CN1CCN2c3ncccc3Cc3ccccc3[C@@H]2C1
parasite load remaining / %: 60.5
//
Compound: CCCC(=O)Nc1ncnc2c1ncn2C1O[C@@H]2COP(=O)(O)O[C@H]2[C@H]1OC(=O)CCC (some centres not stated)
parasite load remaining / %: 129
//
Compound: O=c1cc(-c2cccc3c2Sc2ccccc2S3)oc(N2CCOCC2)c1
parasite load remaining / %: 39.8
//
Compound: CC[C@@H]1OC(=O)C[C@@H](O)[C@H](C)[C@@H](O[C@@H]2O[C@H](C)[C@@H](O)[C@H](N(C)C)[C@H]2O)[C@@H](CCN2C[C@H](C)C[C@H](C)C2)C[C@@H](C)C(=O)/C=C/C(C)=C\[C@@H]1CO[C@@H]1O[C@H](C)[C@@H](O)[C@@H](OC)[C@H]1OC
parasite load remaining / %: 64.4
//
Compound: CCCCCC(O)C1C(=O)OC(C)C(O)/C=C/C=C/C=C/C=C/C=C(\C)C(O)CC(O)CC(O)CC(O)CC(O)CC(O)CC1O (configuration not stated)
parasite load remaining / %: 18

Entry O=C1C(c2c(O)[nH]c3ccccc23)=Nc2ccccc21 — recorded parasite load remaining = 27.8

Entry CC(=O)OCC(=O)[C@@]1(O)[C@H](C)CC2C3CCC4=CC(=O)C=C[C@]4(C)[C@@]3(F)[C@@H](O)C[C@@]21C (some centres not stated) — recorded parasite load remaining = 140

====

Test: growth inhibition of RCMB18 medulloblastoma cells, cell-based, cisplatin and BGB IC40 combos (AID 1671462);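 note: cells exposed to compound for four days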
Details: cisplatin combo, at 5 µM, stronger effect = higher value
As shown below, each of these molecules has a reported inhibition value.
All answers are understood in %, so give the number only.

Examples with their reported inhibition follow.
Chemical Structure: O=C(Nc1ccccc1)c1ccccc1O
Quantity Unit: %
Endpoint Result: 41.7
//
Chemical Structure: O=c1ncccn1[C@@H]1O[C@H](CO)[C@@H](O)[C@H]1O
Quantity Unit: %
Endpoint Result: -19.8
//
Chemical Structure: O=c1[nH]c(-c2ccc(C(F)(F)F)cc2)nc2c1CSCC2
Quantity Unit: %
Endpoint Result: -47.8
//
Chemical Structure: CO[C@H]1/C=C/O[C@@]2(C)Oc3c(C)c(O)c4c(O)c(c(C=NN5CCN(C)CC5)c(O)c4c3C2=O)NC(=O)/C(C)=C\C=C\[C@H](C)[C@H](O)[C@@H](C)[C@@H](O)[C@@H](C)[C@H](OC(C)=O)[C@@H]1C
Quantity Unit: %
Endpoint Result: 4.58
//
Chemical Structure: O=c1cc(-c2cccc3c2Sc2ccccc2S3)oc(N2CCOCC2)c1
Quantity Unit: %
Endpoint Result: 5.15

Entry CC(C)N=c1cc2n(-c3ccc(Cl)cc3)c3ccccc3nc-2cc1Nc1ccc(Cl)cc1 — recorded inhibition = -32.6

Entry Cc1c(-c2cnccn2)ssc1=S — recorded inhibition = -46.1

Entry CCc1c2c(nc3ccc(O)cc13)-c1cc3c(c(=O)n1C2)COC(=O)[C@]3(O)CC — recorded inhibition = 67.1

====

Assay: survival rescue of mitochondrial mutant cells in low glucose, primary screen, MELAS cybrids, Rieske KO mouse fibroblasts, CellTiter-Glo (AID 1508586);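 note: z relative to plate mean and SD of compound and empty wells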
Details: Rieske KO mouse fibroblast survival, CellTiter-Glo 72 h
So basically, if z-score comes in under -0.08 it's 1, and if it's -0.08 or more it's -1.

See these solved cases before continuing.
Molecule: O=C(O)[C@H]1/C(=C/CO)O[C@@H]2CC(=O)N21
Cat: 1

Molecule: N#Cc1c(O)c2c(-c3ccc(-c4ccccc4O)cc3)csc2[nH]c1=O
Cat: -1

Molecule: O=c1[nH]c(-c2ccc(C(F)(F)F)cc2)nc2c1CSCC2
Cat: -1

Molecule: CN1C(=O)C(Cc2c[nH]c3ccccc23)NC1=S (stereo not drawn)
Cat: -1

Molecule: Oc1ccc2ccccc2c1SSc1c(O)ccc2ccccc12
Cat: -1

Molecule: CO[C@H](C(=O)[C@@H](O)[C@@H](C)O)[C@@H]1Cc2cc3cc(O[C@H]4C[C@@H](O[C@H]5C[C@@H](O)[C@H](O)[C@@H](C)O5)[C@@H](O)[C@@H](C)O4)c(C)c(O)c3c(O)c2C(=O)[C@H]1O[C@H]1C[C@@H](O[C@H]2C[C@@H](O[C@H]3C[C@](C)(O)[C@H](O)[C@@H](C)O3)[C@H](O)[C@@H](C)O2)[C@H](O)[C@@H](C)O1
Cat: 1

Molecule: CC1=CC(=O)NS(=O)(=O)O1
Cat: 1

Attention now shifts to the item below.
## Task Below -0.08 on z-score? Entry CC(C)Cc1ccc([C@H](C)C(=O)O)cc1
## Result 1

====

Assay: inhibition of 3D7 malaria parasite growth – strain 3D7 (AID 2306);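 note: 0% = DMSO wells and 100% = chloroquine plus artemisinin control wells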
Conditions: P. falciparum 3D7 erythrocytic growth, LDH absorbance, 72 h; at 2 µM; stronger effect = higher value
Parameter Measured: growth inhibition (%)
All answers are understood in %, so give the number only.

Examples with their reported growth inhibition follow.
Compound: O=C(Nc1cccc(OC2CCN(Cc3ccccc3)CC2)c1)c1ccc(Cl)c(Cl)c1
growth inhibition, %: 101
--
Compound: CC(C)C[C@H](NC(=O)[C@H](Cc1ccccc1)N(C[C@H](Cc1ccccc1)NC(=O)OC(C)(C)C)C(=O)C(F)(F)F)C(=O)NC1CCN(Cc2ccccc2)CC1
growth inhibition, %: 92
--
Compound: CCC(C)NC(=O)Nc1ccc(-c2cccc(-c3nc4c(C)cccc4[nH]3)c2)cc1 (stereo not drawn)
growth inhibition, %: 102
--
Compound: Cc1ccc(Nc2nc3cc(N(C)c4ccnc(Nc5cccc(CCS(C)(=O)=O)c5)n4)ccc3n2C)cc1
growth inhibition, %: 99
--
Compound: CC(=O)Nc1ccc(Nc2ncc([N+](=O)[O-])c(Nc3ccccc3C(N)=O)n2)cc1
growth inhibition, %: 98

Entry Cc1[nH]c(C)c(-c2ccc(Oc3ccc(Cl)c(Cl)c3)cc2)c(=O)c1Cl — recorded growth inhibition = 100

Entry O=C(Nc1ccc(N2CCNCC2)cc1)c1ccn2ncc(-c3cccc(Cl)c3)c2n1 — recorded growth inhibition = 96

Entry COc1cc(C(=O)N2CCOC(CCN3CCC[C@H]3C(=O)Nc3ccccc3)(c3ccc(Cl)c(Cl)c3)C2)cc(OC)c1OC (stereo partly drawn) — recorded growth inhibition = 98

Entry Nc1[nH]c2ccccc2c(=O)c1-c1nc2ccccc2s1 — recorded growth inhibition = 97

Entry COC(=O)C(C)(C)Cc1c(SC(C)(C)C)c2cc(C(C)C)ccc2n1Cc1ccc(Cl)cc1 — recorded growth inhibition = 96
